meta.source: PubChem BioAssay AID2060497

# Tested on: 317291-083-R-J1-PDC complex spheroids, viability;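 also: spheroids exposed to compounds for one week before readout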
# assay-overview: Anticancer human tumor 317291-083-R-J1-PDC patient-derived soft tissue sarcoma cell line growth inhibition [GQUAD]
# condition-parameters: curve of first compound; second compound 0.0316 µM
attribute-measured: pIC50
The scale used: pIC50 is minus the common logarithm of the concentration in molar units.

Lab book: pIC50 of COc1cc(C2c3cc4c(cc3C(OC3OC5COC(C)OC5C(O)C3O)C3COC(=O)C23)OCO4)cc(OC)c1O (stereo not drawn) + CN(C)c1ccc(Nc2c3ccc(NC(=O)CCN4CCCC4)cc3nc3cc(NC(=O)CCN4CCCC4)ccc23)cc1 noted as 6.51

Form field pIC50, entry COc1cccc2c1C(=O)c1c(O)c3c(c(O)c1C2=O)CC(O)(C(=O)CO)CC3OC1CC(N)C(O)C(C)O1 (stereo not drawn) + Cc1cnc(CNC(=O)c2c(=O)c3ccc(N4CCCN(C)CC4)nc3n3c2sc2ccccc23)cn1 : 7.14
